# PROTOCOL_DESCRIPTION: sensitizers of A549 cells to miR-34 induction, primary screen, imaging, A549 dox-inducible miR-34, nuclei and caspase counts (AID 1347080); also: test concentration not given here
# TEST_PARAMETERS: A549 miR-34 inducible, Hoechst nuclei count, 48 h; stronger effect = lower value; cell number ratio, induced over uninduced
Activity calls are given as the source filed them.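 The calls were made as follows: active = compounds whose cell count with miR-34 switched on is under 0.7 times the count with it off; inactive = the rest.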
Hi there, I'd appreciate the recorded fold change for every entry that follows.

| COMPOUND | OBSERVABLE | RESULT |
| --- | --- | --- |
| CCN(CC)CCNC(=O)c1c(C)[nH]c(/C=C2\C(=O)Nc3ccc(F)cc32)c1C | fold change | 0.916 (inactive) |
| CCCCCCCCCCCCCCCCNc1ccc(C(=O)O)cc1 | fold change | 0.865 (inactive) |
| O=C(O)Cc1sc(-c2ccccc2)nc1-c1ccc(Cl)cc1 | fold change | 0.887 (inactive) |
| CN1CC(=O)N/C1=N/C(=O)Nc1cccc(Cl)c1 | fold change | 0.899 (inactive) |

We now examine a further compound.
For reference, reported fold change for CO/N=C(\C(=O)N[C@@H]1C(=O)N2C(C(=O)O)=C(CSc3nc(=O)c(O)nn3C)CSC12)c1csc(N)n1 (stereo not given in full) stands at 1.02 (inactive)

Data provenance is PubChem BioAssay.
